- EXPERIMENTAL_SYSTEM: T1, recombinant human IL-6 (human, UniProt P05231 30-212, limits assumed)
- T1 construct: also called rhIL6; human recombinant IL-6
- TEST_DETAILS: competition ELISA, rhIL-6 in solution against captured IL-6
Hi there, I'd appreciate the recorded log10 of IC50 for every entry that follows.
Values below are the log10 of the recorded IC50, with nM as the unit.

BINDER | NUMERIC_RESULT
mAb 247 (antibody, V domains shown) VH: QVTLKESGPTLVKPTQTLTLTCTFSGFSLSTSGVAVGWIRQPPGKALEWLALIFWDDDKHYSPSLKSRLTITKDTSKNQVVLTMTNMDPVDTATYYCARSYDDYLYYALDYWGQGTLVTVSS VL: DVVMTQSPSSVSASVGDRVTITCRASQDIDNFLAWYQQKPGKAPNLLIYKVSSLRSGVPSRFSGSRSGTDFTLTITSLQPEDFATYFCQQTRRFPLTFGPGTKLE | 0.60
mAb 963 (antibody, V domains shown) VH: QVTLKESGPTLVKPTQTLTLTCSFSGFSLSTSGVGVGWVRQPPGKALEWLAFIFWDDDKYYSPSLESRLTITKDTSKNQVVLTMTNMDPVDTATYYCARSGDDYLYYALDYWGQGTLVT VL: DIQMTQSPSSLSAFVGDGVTMTCWASQSINDYLNWYHQRPGEAPELLVFAASNLQIGVPSRFRGSGSETYFTLTINSLQPEDSGTYFCQNGHSFPLTFGGGTKLEI | -1.05
mAb 187 (antibody, V domains shown) VH: QVTLKESGPALVKPTQTLTLTCTFSGFSLTTSGMCVSWIRQPPGKALEWLALIYWDDDKRYNPSLRSRLTITKDTSKNQVVLTMTNMDPVDTATYYCARSYDDYLYYALDYWGQGTLVT VL: EIVLTQSPSSLSASAGDTVTIACRASQGIRTALAWYQQKPGRNPKLLISEAYRLQSGVSPKFSGSGFGTDFTLTINSLQPEDFATYYCQQFNDFPLTFGGGTKLEIK | 0.38
mAb 808 (antibody, V domains shown) VH: QVTLKESGPTLVKPTQTLTLTCSFSGFSLSTSGVGVGWVRQPPGKALEWLAFIFWDDDKYYSPSLESRLTITKDTSKNQVVLTMTNMDPVDTATYYCARSYDDYLYYALDYWGQGTLVT VL: DIQMTQSPSSLSAFVGDGVTMTCWASQSINDYLNWYHQRPGEAPELLVFAASNLQIGVPSRFRGSGSETYFTLTINSLQPEDSGTYFCQNGWSFPLTFGGGTKLEI | -1.10
mAb 193 (antibody, V domains shown) VH: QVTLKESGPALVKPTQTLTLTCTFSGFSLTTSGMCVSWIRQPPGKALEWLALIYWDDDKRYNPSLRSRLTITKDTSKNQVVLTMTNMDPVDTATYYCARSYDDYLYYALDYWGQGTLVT VL: EIVLTQSPSSLSASVGDRVTISCRASQNIIDYLNWYQHKPGKVPTLLISGTSTLQSGVPSRFSGSGFGTDFTLTISSVQPEDVATYYCQQGHGTPLSFGGGTKLEIK | 0.43
mAb 1155 (antibody, V domains shown) VH: QVTLKESGPTLVKPTQTLTLTCSFSGFSLSTSGVGVGWVRQPPGKALEWLAFIFWDDDKYYSPSLESRLTITKDTSKNQVVLTMTNMDPVDTATYYCARSADDYLYYSFDTWGQGTLVT VL: DIQMTQSPSSLSAFVGDGVTMTCWASQSINDYLNWYHQRPGEAPELLVFAASNLQIGVPSRFRGSGSETYFTLTINSLQPEDSGTYFCQHGHSFPLTFGGGTKLEI | -1.49
mAb 205 (antibody, V domains shown) VH: QVTLKESGPALVKPTQTLTLTCTFSGFSLTTSGMCVSWIRQPPGKALEWLALIYWDDDKRYNPSLRSRLTITKDTSKNQVVLTMTNMDPVDTATYYCARSHDDYLYYALDYWGQGTLVT VL: EIVLTQSPSSLSASVGDRVTISCRASQNIIDYLNWYQHKPGKVPTLLISGTSTLQSGVPSRFSGSGFGTDFTLTISSVQPEDVATYYCQQGHGTPLSFGGGTKLEIK | 0.87
mAb 237 (antibody, V domains shown) VH: QVTLKESGPTLVKPTQTLTLTCTFSGFSLRTSGVSVGWFRQPPGKALEWLALVYWDDDRRYNPSLKNRLTITRDTSKNQVVLTMTNMDPVDTATYYCARSYDDYLYYALDYWGQGTLVT VL: DVVMTQSPSSVSASVGDRVTITCRASQDIDNFLAWYQQKPGKAPNLLIYKVSSLRSGVPSRFSGSRSGTDFTLTITSLQPEDFATYFCQQTRRFPLTFGPGTKLE | 0.81
mAb 286 (antibody, V domains shown) VH: QVTLKESGPALVKPTQTLTLTCTFSGFSLSTSGMCVSWIRQPPGKALEWLTLIYWDDDKRYSPSLETRLTITKDTSKNQVVLTMTNMDPVDTATYYCARSYDDYLYYALDYWGQGTLVT VL: DIVMTQSPSSLSASVGDRVTITCRASQTISSYLNWYQQKPGKPPKLLIYAASSLESGVPSRFSGSGSGTEFTLTISSLQPEDLATYYCQQANSFPLTFGGGTKLE | 0.40

Read the next record carefully.
Input line: Which log10 of IC50 value is on record for mAb 1127 (antibody, V domains shown) VH: QVTLKESGPTLVKPTQTLTLTCSFSGFSLSTSGVGVGWVRQPPGKALEWLAFIFWDDDKYYSPSLESRLTITKDTSKNQVVLTMTNMDPVDTATYYCARSYDDYLMYALDYWGQGTLVT VL: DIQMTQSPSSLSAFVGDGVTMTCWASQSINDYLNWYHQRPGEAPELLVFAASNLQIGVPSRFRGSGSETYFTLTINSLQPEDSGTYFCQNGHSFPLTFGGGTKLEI ?
Output line: -1.05
